We begin with a simple list: items and their reported cell viability.
test system: MOLM14; test: cell viability relative to vehicle control; higher = less cytotoxic; conditions: 10 µM; SRSF2 genotype: SRSF2 wt/wt;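 note: after 48 h exposure read by CellTiter-Glo luminescence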
The reply should contain only the number, in %.

CNC(=O)c1cnn(-c2nc(N)c3ncn([C@@H]4O[C@H](CO)[C@@H](O)[C@H]4O)c3n2)c1	103

Input line: Assign cell viability to the following record: O=C(Nc1cccc2cccnc12)c1ccc(N2C(=O)C3C4C=CC(C4)C3C2=O)cc1 (stereo not drawn) [IWR-1-endo]
Output line: 118

Input line: Give reported cell viability value for COc1ccc2c(c1)c(CC(=O)OCC(=O)O)c(C)n2C(=O)c1ccc(Cl)cc1 [Acemetacin (Emflex)]
Output line: 98.6

Input line: Tell us which cell viability value is on record for CC1Cc2ccccc2N1NC(=O)c1ccc(Cl)c(S(N)(=O)=O)c1 (stereo unspecified) [Indapamide (Lozol)]
Output line: 106
